The reported measurements were obtained from ChEMBL document CHEMBL1132620.

- Species: Mus musculus
- Experimental protocol: Ability to antagonize the muscle relaxation effect in mice caused by a benzodiazepine full agonist, triazolam.
- Type: functional
Listing of recorded ED50 by entry.

Compound: CN1CCN(C(=O)N2Cc3c(C(=O)OC(C)(C)C)ncn3-c3ccc(Cl)cc32)CC1(C)C
ED50: > 30 mg/kg
//
Compound: CC1CN(C(=O)N2Cc3c(C(=O)OC(C)(C)C)ncn3-c3ccc(Cl)cc32)CC(C)N1 (stereo not drawn)
ED50: 17.3 mg/kg
//
Compound: CC1(C)CN(C(=O)N2Cc3c(C(=O)OC(C)(C)C)ncn3-c3ccc(Cl)cc32)CC(C)(C)N1
ED50: > 30 mg/kg
//
Compound: CCCC(=O)O.C[C@@H]1CN(C(=O)N2Cc3c(C(=O)OC(C)(C)C)ncn3-c3ccc(Cl)cc32)C[C@H](C)N1
ED50: > 30 mg/kg
//
Compound: CC(=O)N1[C@H](C)CN(C(=O)N2Cc3c(C(=O)OC(C)(C)C)ncn3-c3ccc(Cl)cc32)C[C@@H]1C
ED50: > 30 mg/kg
//
Compound: C[C@H]1CN(C(=O)N2Cc3c(C(=O)OC(C)(C)C)ncn3-c3ccc(C(F)(F)F)cc32)C[C@H](C)N1
ED50: > 30 mg/kg
//
Compound: C[C@@H]1CN(C(=O)N2Cc3c(C(=O)OC(C)(C)C)ncn3-c3ccc(Cl)cc32)C[C@H](C)N1C
ED50: 7 mg/kg
//
Compound: C[C@@H]1CN(C(=O)N2Cc3c(C(=O)OC(C)(C)C)ncn3-c3cccc(Cl)c32)C[C@H](C)N1C
ED50: > 30 mg/kg
//
Compound: CC1CN(C(=O)N2Cc3c(C(=O)OC(C)(C)C)ncn3-c3ccc(Cl)cc32)CCN1 (stereo not drawn)
ED50: > 30 mg/kg
//
Compound: CC(C)(C)OC(=O)c1ncn2c1CN(C(=O)N1CCN(C(C)(C)C)CC1)c1cc(Cl)ccc1-2
ED50: > 30 mg/kg
//
Compound: C[C@@H]1CN(C(=O)N2Cc3c(C(=O)OC(C)(C)C)ncn3-c3ccc(Cl)cc32)C[C@H](C)N1CC(F)(F)F
ED50: > 30 mg/kg
//
Compound: CC(C)(C)OC(=O)c1ncn2c1CN(C(=O)N1CCCC1)c1cc(Cl)ccc1-2.CCCC(=O)O
ED50: 14 mg/kg
//
Compound: C[C@@H]1CN(C(=O)N2Cc3c(C(=O)OC(C)(C)C)ncn3-c3ccc(Cl)cc32)C[C@H](C)N1S(C)(=O)=O.ClCCl
ED50: > 30 mg/kg
//
Compound: C[C@@H]1CN(C(=O)N2Cc3c(C(=O)OC(C)(C)C)ncn3-c3ccc(C(F)(F)F)cc32)C[C@H](C)N1
ED50: > 30 mg/kg
//
Compound: C[C@@H]1CN(C(=O)N2Cc3c(C(=O)OC(C)(C)C)ncn3-c3ccc(C(F)(F)F)cc32)C[C@H](C)N1C
ED50: 21.8 mg/kg
//
Compound: CC1(C)CN(C(=O)N2Cc3c(C(=O)OC(C)(C)C)ncn3-c3ccc(Cl)cc32)CCN1
ED50: > 30 mg/kg
//
Compound: C[C@@H]1CN(C(=O)N2Cc3c(C(=O)OC(C)(C)C)ncn3-c3ccc(C(F)(F)F)cc32)CCN1
ED50: > 30 mg/kg
//
Compound: CC(C)n1c(=O)c2c(-c3noc(C4CC4)n3)ncn2c2ccccc21 [PANADIPLON]
ED50: 1.7 mg/kg
//
Compound: C[C@@H]1CN(C(=O)N2Cc3c(C(=O)OC(C)(C)C)ncn3-c3ccc(Cl)cc32)C[C@@H](C)N1
ED50: > 30 mg/kg
//
Compound: C[C@@H]1CN(C(=O)N2Cc3c(C(=O)OC(C)(C)C)ncn3-c3ccc(Cl)cc32)CCN1
ED50: 27.5 mg/kg
//
Compound: CC1CNCC(C)N1C(=O)N1Cc2c(C(=O)OC(C)(C)C)ncn2-c2ccc(F)cc21 (stereo not drawn)
ED50: > 30 mg/kg
//
Compound: C[C@@H]1NCCN(C(=O)N2Cc3c(C(=O)OC(C)(C)C)ncn3-c3ccc(Cl)cc32)[C@H]1C
ED50: 35 mg/kg
//
Compound: CC1CN(C)CC(C)N1C(=O)N1Cc2c(C(=O)OC(C)(C)C)ncn2-c2ccc(Cl)cc21 (stereo not drawn)
ED50: > 30 mg/kg
//
Compound: CN1CCN(C(=O)N2Cc3c(C(=O)OC(C)(C)C)ncn3-c3ccc(Cl)cc32)CC1
ED50: 11 mg/kg
//
Compound: CN1C2CCC1CN(C(=O)N1Cc3c(C(=O)OC(C)(C)C)ncn3-c3ccc(Cl)cc31)C2
ED50: > 30 mg/kg
//
Compound: Cc1ccc2c(c1)N(C(=O)N1C[C@H](C)N[C@@H](C)C1)Cc1c(C(=O)OC(C)(C)C)ncn1-2
ED50: > 30 mg/kg
//
Compound: C[C@@H]1CN(C(=O)N2Cc3c(C(=O)OC(C)(C)C)ncn3-c3ccc(F)cc32)C[C@H](C)N1
ED50: > 30 mg/kg
//
Compound: C[C@H]1NCCN(C(=O)N2Cc3c(C(=O)OC(C)(C)C)ncn3-c3ccc(Cl)cc32)[C@H]1C
ED50: > 30 mg/kg
//
Compound: CC(C)N1[C@H](C)CN(C(=O)N2Cc3c(C(=O)OC(C)(C)C)ncn3-c3ccc(Cl)cc32)C[C@@H]1C
ED50: > 30 mg/kg
//
Compound: CCCC(=O)O.CCN1[C@H](C)CN(C(=O)N2Cc3c(C(=O)OC(C)(C)C)ncn3-c3ccc(Cl)cc32)C[C@@H]1C
ED50: > 30 mg/kg
//
Compound: C[C@@H]1CN(C(=O)N2Cc3c(C(=O)OC(C)(C)C)ncn3-c3ccccc32)C[C@H](C)N1
ED50: > 30 mg/kg
//
Compound: CC(C)(C)OC(=O)c1ncn2c1CN(C(=O)N1CCCCC1)c1ccccc1-2
ED50: 4 mg/kg
//
Compound: Cc1ccc2c(c1)N(C(=O)N1CCN[C@@H](C)C1)Cc1c(C(=O)OC(C)(C)C)ncn1-2
ED50: > 30 mg/kg
